Values were extracted from ChEMBL document CHEMBL1143104.

biological target: Melanocortin receptor 4 (Homo sapiens); test: Agonist activity at human MC4 receptor expressed in CHO cells assessed as accumulation of cAMP production
pEC50: −log10 of the molar value.

| COMPOUND | SUBJECT OF TEST | pEC50 |
| --- | --- | --- |
| CC(C)[C@H](NC(=O)CCN(C)C)c1cccc(F)c1N1CCN(C(=O)[C@@H]2CN(C(C)C)C[C@H]2c2ccc(F)c(Cl)c2)CC1 | Melanocortin receptor 4 (Homo sapiens) | 6.39 |
| Cc1ccc(N2CCN(C(=O)[C@@H]3CN(C4CCOCC4)C[C@H]3c3ccc(Cl)cc3)CC2)c([C@@H](NC(=O)[C@@H](C)N)C(C)C)c1 | Melanocortin receptor 4 (Homo sapiens) | 7.77 |
| CC(=O)N1C[C@@H](C(=O)N2CCN(c3ccc(C)cc3[C@@H](NC(=O)CCN(C)C)C(C)C)CC2)[C@H](c2ccc(Cl)cc2)C1 | Melanocortin receptor 4 (Homo sapiens) | 7.36 |
| Cc1ccc(N2CCN(C(=O)[C@@H]3CNC[C@H]3c3ccc(Cl)cc3)CC2)c([C@@H](NC(=O)CCN(C)C)C(C)C)c1 | Melanocortin receptor 4 (Homo sapiens) | 7.10 |
| Cc1ccc(N2CCN(C(=O)[C@@H]3CN(C4CCOCC4)C[C@H]3c3ccc(Cl)cc3)CC2)c([C@@H](NC(=O)[C@H](C)N)C(C)C)c1 | Melanocortin receptor 4 (Homo sapiens) | 8.28 |
| Cc1ccc(N2CCN(C(=O)[C@@H]3CN(C4CCOCC4)C[C@H]3c3ccc(Cl)cc3)CC2)c([C@@H](NC(=O)CCN(C)C)C(C)C)c1 (stereo in doubt; 13b-1) | Melanocortin receptor 4 (Homo sapiens) | 8.42 |
| CC(C)[C@H](NC(=O)CCN(C)C)c1cccc(F)c1N1CCN(C(=O)[C@@H]2CN(C(C)C)C[C@H]2c2ccc(Cl)cc2)CC1 | Melanocortin receptor 4 (Homo sapiens) | 7.70 |
| Cc1ccc(N2CCN(C(=O)[C@@H]3CN(C4CCOCC4)C[C@H]3c3ccc(Cl)cc3)CC2)c([C@@H](NC(=O)CN)C(C)C)c1 | Melanocortin receptor 4 (Homo sapiens) | 8.04 |
| CNCC(=O)N[C@H](c1cc(C)ccc1N1CCN(C(=O)[C@@H]2CN(C3CCOCC3)C[C@H]2c2ccc(Cl)cc2)CC1)C(C)C | Melanocortin receptor 4 (Homo sapiens) | 7.72 |
| CC(C)[C@H](NC(=O)CCN(C)C)c1cccc(F)c1N1CCN(C(=O)[C@@H]2CN(C(C)C)C[C@H]2c2ccc(C(F)(F)F)c(F)c2)CC1 | Melanocortin receptor 4 (Homo sapiens) | 6.47 |
| CCC(=O)N1C[C@@H](C(=O)N2CCN(c3ccc(C)cc3[C@@H](NC(=O)CCN(C)C)C(C)C)CC2)[C@H](c2ccc(Cl)cc2)C1 | Melanocortin receptor 4 (Homo sapiens) | 7.57 |
| Cc1ccc(N2CCN(C(=O)[C@@H]3CN(C4CCOCC4)C[C@H]3c3ccc(Cl)cc3)CC2)c([C@@H](NC(=O)CCN)C(C)C)c1 | Melanocortin receptor 4 (Homo sapiens) | 8.22 |
| Cc1ccc(N2CCN(C(=O)[C@@H]3CN(C4CCOCC4)C[C@H]3c3ccc(Cl)cc3)CC2)c([C@@H](NC(=O)CCN(C)C)C(C)C)c1 (stereo in doubt; 13b) | Melanocortin receptor 4 (Homo sapiens) | 8.00 |

* * *

assay: Drug level in rat brain at 10 mg/kg, po after 4 hrs; format: ADME, organism-based; set-up: dose 10 mg/kg, route oral; conditions: read-out: Drug uptake
QUANTITY MEASURED: concentration at 4 h (ng/g)

| MOLECULE | QUANTITY MEASURED | MEASURED RESULT |
| --- | --- | --- |
| Cc1ccc(N2CCN(C(=O)[C@H]3CN(C4CCOCC4)C[C@@H]3c3ccc(Cl)cc3)CC2)c([C@@H](NC(=O)CCN(C)C)C(C)C)c1 | concentration at 4 h | 18 |
| Cc1ccc(N2CCN(C(=O)[C@@H]3CN(C4CCOCC4)C[C@H]3c3ccc(Cl)cc3)CC2)c([C@@H](NC(=O)CCN(C)C)C(C)C)c1 (stereo in doubt; 13b-1) | concentration at 4 h | 19 |

* * *

experiment: AUC in rat at 10 mg/kg, po; format: ADME, organism-based; set-up: dose 10 mg/kg, route oral; details: plasma
Below: a set of entries, each annotated with reported AUC.

| COMPOUND | AUC / ng·h/mL |
| --- | --- |
| Cc1ccc(N2CCN(C(=O)[C@H]3CN(C4CCOCC4)C[C@@H]3c3ccc(Cl)cc3)CC2)c([C@@H](NC(=O)CCN(C)C)C(C)C)c1 | 161 |
| Cc1ccc(N2CCN(C(=O)[C@@H]3CN(C4CCOCC4)C[C@H]3c3ccc(Cl)cc3)CC2)c([C@@H](NC(=O)CCN(C)C)C(C)C)c1 (stereo in doubt; 13b-1) | 114 |

* * *

biological target: Melanocortin receptor 5 (Homo sapiens, UniProt P33032)
Sequence (P33032 whole entry): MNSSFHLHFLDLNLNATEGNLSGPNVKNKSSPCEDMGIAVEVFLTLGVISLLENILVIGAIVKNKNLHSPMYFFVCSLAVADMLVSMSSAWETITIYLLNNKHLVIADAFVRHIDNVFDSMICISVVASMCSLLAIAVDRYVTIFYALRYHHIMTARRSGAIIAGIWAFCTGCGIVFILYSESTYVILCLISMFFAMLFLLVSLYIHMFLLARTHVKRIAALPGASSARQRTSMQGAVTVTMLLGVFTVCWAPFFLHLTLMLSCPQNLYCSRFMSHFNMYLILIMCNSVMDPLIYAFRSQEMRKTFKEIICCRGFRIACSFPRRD
QUANTITY MEASURED: Ki (nM)

| LINE NOTATION | QUANTITY MEASURED | MEASURED RESULT |
| --- | --- | --- |
| Cc1ccc(N2CCN(C(=O)[C@H]3CN(C4CCOCC4)C[C@@H]3c3ccc(Cl)cc3)CC2)c([C@@H](NC(=O)CCN(C)C)C(C)C)c1 | Ki | 530 |

* * *

test: Ratio of drug level in brain to plasma in po dosed DIO rat after 7 days; format: ADME, organism-based; conditions: read-out: BPR

| COMPOUND | Kp at 168 h |
| --- | --- |
| Cc1ccc(N2CCN(C(=O)[C@@H]3CN(C4CCOCC4)C[C@H]3c3ccc(Cl)cc3)CC2)c([C@@H](NC(=O)CCN(C)C)C(C)C)c1 (stereo in doubt; 13b-1) | > 10 |

* * *

assay: AUC in rat at 2.5 mg/kg, iv; type: ADME, organism-based; parameters: dose 2.5 mg/kg, route intravenous; settings: plasma
Reported AUC values for the following compounds.

| COMPOUND | AUC |
| --- | --- |
| Cc1ccc(N2CCN(C(=O)[C@@H]3CN(C4CCOCC4)C[C@H]3c3ccc(Cl)cc3)CC2)c([C@@H](NC(=O)CCN(C)C)C(C)C)c1 (stereo in doubt; 13b-1) | 307 ng·h/mL |
| Cc1ccc(N2CCN(C(=O)[C@H]3CN(C4CCOCC4)C[C@@H]3c3ccc(Cl)cc3)CC2)c([C@@H](NC(=O)CCN(C)C)C(C)C)c1 | 455 ng·h/mL |

* * *

experiment: Half life in rat at 2.5 mg/kg, iv; type: ADME, organism-based; parameters: dose 2.5 mg/kg, route intravenous; conditions: in vivo
QUANTITY MEASURED: half-life (h)

| COMPOUND | QUANTITY MEASURED | MEASURED RESULT |
| --- | --- | --- |
| Cc1ccc(N2CCN(C(=O)[C@@H]3CN(C4CCOCC4)C[C@H]3c3ccc(Cl)cc3)CC2)c([C@@H](NC(=O)CCN(C)C)C(C)C)c1 (stereo in doubt; 13b-1) | half-life | 7.1 |
| Cc1ccc(N2CCN(C(=O)[C@H]3CN(C4CCOCC4)C[C@@H]3c3ccc(Cl)cc3)CC2)c([C@@H](NC(=O)CCN(C)C)C(C)C)c1 | half-life | 11 |

* * *

Vd reference
test: Volume of distribution in rat in rat at 2.5 mg/kg, iv; format: ADME, organism-based; set-up: dose 2.5 mg/kg, route intravenous; conditions: in vivo

| MOLECULE | Vd / L/kg |
| --- | --- |
| Cc1ccc(N2CCN(C(=O)[C@H]3CN(C4CCOCC4)C[C@@H]3c3ccc(Cl)cc3)CC2)c([C@@H](NC(=O)CCN(C)C)C(C)C)c1 | 75 |
| Cc1ccc(N2CCN(C(=O)[C@@H]3CN(C4CCOCC4)C[C@H]3c3ccc(Cl)cc3)CC2)c([C@@H](NC(=O)CCN(C)C)C(C)C)c1 (stereo in doubt; 13b-1) | 80 |

* * *

biological target: Melanocortin receptor 4 (Homo sapiens, UniProt P32245)
Sequence (P32245 whole entry): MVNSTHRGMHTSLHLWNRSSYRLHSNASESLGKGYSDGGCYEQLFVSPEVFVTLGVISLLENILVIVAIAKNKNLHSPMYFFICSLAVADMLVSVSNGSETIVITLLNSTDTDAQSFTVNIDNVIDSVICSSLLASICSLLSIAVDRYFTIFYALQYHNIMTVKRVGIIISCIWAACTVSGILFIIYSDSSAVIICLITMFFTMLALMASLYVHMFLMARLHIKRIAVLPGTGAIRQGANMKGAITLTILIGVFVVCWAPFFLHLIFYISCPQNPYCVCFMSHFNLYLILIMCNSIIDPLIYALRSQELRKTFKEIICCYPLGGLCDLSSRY

| LINE NOTATION | Ki [nM] |
| --- | --- |
| CC(=O)N1C[C@@H](C(=O)N2CCN(c3ccc(C)cc3[C@@H](NC(=O)CCN(C)C)C(C)C)CC2)[C@H](c2ccc(Cl)cc2)C1 | 7.6 |
| Cc1ccc(N2CCN(C(=O)[C@@H]3CNC[C@H]3c3ccc(Cl)cc3)CC2)c([C@@H](NC(=O)CCN(C)C)C(C)C)c1 | 7.2 |
| CC(C)[C@H](NC(=O)CCN(C)C)c1cccc(F)c1N1CCN(C(=O)[C@@H]2CN(C(C)C)C[C@H]2c2ccc(Cl)cc2Cl)CC1 | 7.5 |
